tested.on: endogenous CD38 in HL60 cells (Homo sapiens, UniProt P28907)
Construct: endogenous in cells
Sequence (P28907 whole entry): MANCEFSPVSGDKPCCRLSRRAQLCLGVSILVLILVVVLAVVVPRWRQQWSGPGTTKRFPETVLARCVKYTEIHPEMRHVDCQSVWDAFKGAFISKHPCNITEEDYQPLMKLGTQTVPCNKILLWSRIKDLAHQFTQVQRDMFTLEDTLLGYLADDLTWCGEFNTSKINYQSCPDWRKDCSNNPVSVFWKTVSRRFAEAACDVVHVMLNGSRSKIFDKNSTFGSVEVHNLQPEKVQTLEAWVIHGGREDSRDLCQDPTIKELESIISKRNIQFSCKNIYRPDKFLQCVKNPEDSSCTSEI
experiment.notes: cellular CD38 assay in HL60 cells (cellular NAD levels)
assay.conditions: all-trans retinoic acid, 24 hours, read-out: hCD38 HL60 ATRA NAD Cell Diaphorase IC50

[
  {
    "smiles.notation": "CO[C@@H]1CC[C@@H](NC(=O)c2cccc(-n3ccnc3)n2)C1",
    "tested.on": "endogenous CD38 in HL60 cells (Homo sapiens, UniProt P28907)",
    "IC50 (nM)": 4550
  },
  {
    "smiles.notation": "Cn1cncc1-c1ccnc(C(=O)N[C@H]2CC[C@H](OC(F)F)CC2)n1",
    "tested.on": "endogenous CD38 in HL60 cells (Homo sapiens, UniProt P28907)",
    "IC50 (nM)": 2210
  },
  {
    "smiles.notation": "COCCO[C@H]1CC[C@H](NC(=O)c2cc(C(F)(F)F)cc(-n3ccnc3)n2)CC1",
    "tested.on": "endogenous CD38 in HL60 cells (Homo sapiens, UniProt P28907)",
    "IC50 (nM)": 7850
  },
  {
    "smiles.notation": "CO[C@H]1CC[C@H](NC(=O)c2cc(C)nc(-n3ccnc3)n2)CC1",
    "tested.on": "endogenous CD38 in HL60 cells (Homo sapiens, UniProt P28907)",
    "IC50 (nM)": 1620
  },
  {
    "smiles.notation": "Cn1cncc1-c1nc(C(=O)Nc2ccc(C(F)F)nc2)cc(C(C)(C)O)n1",
    "tested.on": "endogenous CD38 in HL60 cells (Homo sapiens, UniProt P28907)",
    "IC50 (nM)": 1090
  },
  {
    "smiles.notation": "Cn1cncc1-c1nc(C(=O)N[C@H]2C[C@](O)(c3ccccc3)C2)cc(C2CCOCC2)n1",
    "tested.on": "endogenous CD38 in HL60 cells (Homo sapiens, UniProt P28907)",
    "IC50 (nM)": 2070
  },
  {
    "smiles.notation": "CO[C@H]1CC[C@H](NC(=O)c2cc(C(C)C)nc(-c3cncn3C)n2)CC1",
    "tested.on": "endogenous CD38 in HL60 cells (Homo sapiens, UniProt P28907)",
    "IC50 (nM)": 3730
  },
  {
    "smiles.notation": "Cc1ccc(NC(=O)c2cccc(-n3ccnc3)n2)cn1",
    "tested.on": "endogenous CD38 in HL60 cells (Homo sapiens, UniProt P28907)",
    "IC50 (nM)": 365
  }
]
